target: STING (Homo sapiens, UniProt Q86WV6, G230A/H232R/R293Q/R71H); experiment: STING reporter assay in THP1-Dual KO-IFNAR2 cells (2′3′cGAMP stimulation, luciferase reporter); type: cell-based; conditions: 15 μM 2′3′cGAMP stimulation, 24 h, read-out: Pharmaron, THP1_IFNAR2 STING 24 h Luci Normalized: GeoMean EC50
Sequence (Q86WV6 whole entry R71H/G230A/H232R/R293Q): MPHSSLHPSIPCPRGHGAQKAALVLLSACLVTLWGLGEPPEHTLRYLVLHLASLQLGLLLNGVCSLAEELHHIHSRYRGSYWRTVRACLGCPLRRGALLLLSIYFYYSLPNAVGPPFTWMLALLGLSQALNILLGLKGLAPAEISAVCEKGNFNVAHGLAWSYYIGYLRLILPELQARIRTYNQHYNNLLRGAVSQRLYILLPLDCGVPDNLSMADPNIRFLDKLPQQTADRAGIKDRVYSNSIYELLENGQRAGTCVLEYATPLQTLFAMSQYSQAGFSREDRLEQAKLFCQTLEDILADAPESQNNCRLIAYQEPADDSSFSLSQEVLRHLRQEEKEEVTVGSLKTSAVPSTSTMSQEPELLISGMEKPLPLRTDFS
pEC50: −log10 of the molar value.
# pEC50 listing for each entry below

compound	result-value
CC(=O)Nc1c[nH]c2ccc(OCCC3CCN(CC(F)(F)F)CC3)cc12 [Compound 122]	6.00 to 6.70
CN1CC(C(=O)Nc2c[nH]c3ccc(CCOc4ccc(C(F)(F)F)cc4)cc23)C1 [Compound 590]	5.30 to 6.00
CC(=O)Nc1c[nH]c2ccc(OC3Cc4ccc(C(F)(F)F)cc4C3)cc12 (centres unmarked) [Compound 473]	5.30 to 6.00
CC(=O)Nc1c[nH]c2ccc(COc3ccc(C(F)(F)F)cc3)cc12 [Compound 115]	6.70 to 7.40
O=C(Nc1c[nH]c2ccc(OCCc3ccc(C(F)(F)F)cc3)cc12)C1CC1(F)F (centres unmarked) [Compound 181]	6.00 to 6.70
CC(=O)Nc1c[nH]c2ccc(CC(N)Cc3ccc(C(F)(F)F)cc3)cc12 (centres unmarked) [Compound 517]	4.00 to 5.30

Determine its reported pEC50: COCCOCC(=O)Nc1c[nH]c2ccc(O[C@H]3C[C@@H](c4ccc(C(F)(F)F)cc4)C3)cc12 [Compound 405] 6.00 to 6.70

Determine its reported pEC50: CC(=O)Nc1c[nH]c2ccc(CCC(C)(C)C3CCN(CC(F)(F)F)CC3)cc12 [Compound 275] 5.30 to 6.00
